Reference source for all entries: ChEMBL document CHEMBL4400549

EXPERIMENTAL TARGET: Autoinducer-2 kinase (Salmonella typhimurium (strain LT2 / SGSC1412 / ATCC 700720))
Sequence (whole entry): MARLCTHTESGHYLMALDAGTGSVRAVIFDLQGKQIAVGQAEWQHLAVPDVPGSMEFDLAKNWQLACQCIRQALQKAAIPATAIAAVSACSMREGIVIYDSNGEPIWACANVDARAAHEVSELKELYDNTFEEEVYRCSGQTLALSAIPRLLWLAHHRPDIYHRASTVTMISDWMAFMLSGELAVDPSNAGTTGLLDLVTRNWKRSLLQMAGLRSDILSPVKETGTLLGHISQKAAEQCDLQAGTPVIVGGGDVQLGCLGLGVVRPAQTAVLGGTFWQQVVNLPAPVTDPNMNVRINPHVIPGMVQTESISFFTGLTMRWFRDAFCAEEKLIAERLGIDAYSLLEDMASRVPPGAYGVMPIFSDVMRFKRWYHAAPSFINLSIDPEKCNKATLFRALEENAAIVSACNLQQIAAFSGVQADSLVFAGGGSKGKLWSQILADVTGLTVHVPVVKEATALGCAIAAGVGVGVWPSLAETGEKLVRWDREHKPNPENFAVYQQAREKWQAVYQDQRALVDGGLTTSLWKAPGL
TEST NAME: Inhibition of Salmonella typhimurium LsrK expressed in Escherichia coli MET1158 at 200 uM using (S)-DPD as substrate after 15 mins by Kinase Glo luminescence assay relative to control
TEST SETTINGS: Salmonella enterica subsp. enterica serovar Typhimurium
Form field: inhibition (one value per entry).
Your answer is read as %, so omit the unit and give the number.

# example entries with known answers
>  <COMPOUND>
OCC(O)c1cc(-c2ccco2)n[nH]1 (centres undefined)

>  <QUANTITATIVE READOUT>
0

$$$$
>  <COMPOUND>
OCC(O)c1cc(C2CC2)n[nH]1 (centres undefined)

>  <QUANTITATIVE READOUT>
0

$$$$
>  <COMPOUND>
CC(C)c1cc(C2COC3(CCCCC3)O2)n(C)n1 (centres undefined)

>  <QUANTITATIVE READOUT>
0

$$$$
>  <COMPOUND>
CC(C)c1cc(C(O)CO)[nH]n1 (centres undefined)

>  <QUANTITATIVE READOUT>
0

$$$$

Given the compound c1ccc(-c2cc(C3COC4(CCCCC4)O3)[nH]n2)cc1 (centres undefined) , write its reported inhibition.
53.6

Given the compound Cn1nc(-c2ccccc2)cc1C1COC2(CCCCC2)O1 (centres undefined) , write its reported inhibition.
78

Given the compound Fc1cccc2cnc(C3COC4(CCCCC4)O3)cc12 (centres undefined) , write its reported inhibition.
1.76

Given the compound Cc1nc(-c2ccccc2)cc(C2COC3(CCCCC3)O2)c1C(=O)O (centres undefined) , write its reported inhibition.
0

Given the compound Cc1cc(-c2ccccc2)nn1C , write its reported inhibition.
2.01

###

Form field: inhibition (one value per entry).
EXPERIMENTAL TARGET: Autoinducer-2 kinase (Salmonella typhimurium (strain LT2 / SGSC1412 / ATCC 700720)) (UniProt Q8ZKQ6)
TEST NAME: Inhibition of Salmonella typhimurium LsrK expressed in Escherichia coli MET1158 at 200 uM using (S)-DPD as substrate after 15 mins by Kinase Glo luminescence assay relative to control
TEST SETTINGS: Salmonella enterica subsp. enterica serovar Typhimurium
Your answer is read as %, so omit the unit and give the number.

# example entries with known answers
>  <MOLECULE>
c1ccc(-c2cc(C3COC4(CCCCC4)O3)n(-c3ccccc3)n2)cc1 (centres undefined)

>  <inhibition / %>
0

$$$$
>  <MOLECULE>
c1cc2cc(C3COC4(CCCCC4)O3)ncc2o1 (centres undefined)

>  <inhibition / %>
5.75

$$$$
>  <MOLECULE>
Cn1nc(C2CCCCC2)cc1C1COC2(CCCCC2)O1 (centres undefined)

>  <inhibition / %>
1.51

$$$$
>  <MOLECULE>
c1ccc(-c2cc(C3COC4(CCCCC4)O3)n(C3CC3)n2)cc1 (centres undefined)

>  <inhibition / %>
0

$$$$
>  <MOLECULE>
Cn1nc(-c2cc(F)cc(Cl)c2)cc1C1COC2(CCCCC2)O1 (centres undefined)

>  <inhibition / %>
4.42

$$$$

Given the molecule OCC(O)c1cc(-c2ccccc2)nc(C2CC2)n1 (centres undefined) , write its reported inhibition.
24.5

Given the molecule OCC(O)c1cc2ccsc2cn1 (centres undefined) , write its reported inhibition.
0.17

Given the molecule Fc1cccc(-c2nc(-c3cccs3)cc(C3COC4(CCCCC4)O3)n2)c1 (centres undefined) , write its reported inhibition.
0.2

Given the molecule c1cc2cc(C3COC4(CCCCC4)O3)ncc2s1 (centres undefined) , write its reported inhibition.
11.1

Given the molecule OCC(O)c1cc(-c2cccs2)n[nH]1 (centres undefined) , write its reported inhibition.
0

###

EXPERIMENTAL TARGET: Autoinducer-2 kinase (Salmonella typhimurium (strain LT2 / SGSC1412 / ATCC 700720)) (UniProt Q8ZKQ6)
Sequence (whole entry): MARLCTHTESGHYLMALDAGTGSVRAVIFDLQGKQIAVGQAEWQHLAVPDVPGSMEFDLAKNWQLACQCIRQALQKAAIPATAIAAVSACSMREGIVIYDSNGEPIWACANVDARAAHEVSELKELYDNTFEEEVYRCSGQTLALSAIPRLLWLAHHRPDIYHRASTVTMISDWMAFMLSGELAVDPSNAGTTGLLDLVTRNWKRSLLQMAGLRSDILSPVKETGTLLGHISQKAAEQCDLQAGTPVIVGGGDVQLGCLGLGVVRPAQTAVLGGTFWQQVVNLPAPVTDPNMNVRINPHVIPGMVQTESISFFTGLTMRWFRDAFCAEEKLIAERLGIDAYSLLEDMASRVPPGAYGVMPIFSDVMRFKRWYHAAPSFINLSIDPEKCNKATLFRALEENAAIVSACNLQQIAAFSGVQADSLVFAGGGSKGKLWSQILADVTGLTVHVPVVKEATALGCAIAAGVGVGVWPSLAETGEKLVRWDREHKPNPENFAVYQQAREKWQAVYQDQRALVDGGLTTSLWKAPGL
TEST NAME: Inhibition of Salmonella typhimurium LsrK expressed in Escherichia coli MET1158 at 200 uM using (S)-DPD as substrate after 15 mins by Kinase Glo luminescence assay relative to control
TEST SETTINGS: Salmonella enterica subsp. enterica serovar Typhimurium
Decide using inhibition: a value greater than or equal to 0.4% is criterion met, a smaller one is criterion not met.

>  <COMPOUND>
Cn1nc(C23CC4CC(CC(C4)C2)C3)cc1C1COC2(CCCCC2)O1 (centres undefined)

>  <CATEGORY>
criterion not met

$$$$
>  <COMPOUND>
OCC(O)c1cc(-c2ccccc2)n[nH]1 (centres undefined)

>  <CATEGORY>
criterion not met

$$$$
>  <COMPOUND>
CN(C)c1ccc(-c2cc(C3COC4(CCCCC4)O3)n(C)n2)cc1 (centres undefined)

>  <CATEGORY>
criterion not met

$$$$

// switching to the query compound
Given Cn1nc(-c2ccccc2)cc1C1COC2(CCCC2)O1 (centres undefined) , state whether its inhibition is at least 0.4%.
criterion met

###

EXPERIMENTAL TARGET: Autoinducer-2 kinase (Salmonella typhimurium (strain LT2 / SGSC1412 / ATCC 700720))
TEST NAME: Inhibition of Salmonella typhimurium LsrK expressed in Escherichia coli MET1158 at 200 uM using (S)-DPD as substrate after 15 mins by Kinase Glo luminescence assay relative to control
TEST SETTINGS: Salmonella enterica subsp. enterica serovar Typhimurium
MEASURED ENDPOINT: inhibition (%)
Your answer is read as %, so omit the unit and give the number.

>  <COMPOUND>
c1ccc(-c2nc(C3CC3)cc(C3COC4(CCCCC4)O3)n2)nc1 (stereo not given)

>  <inhibition (%)>
21.2

$$$$
>  <COMPOUND>
CC(=O)N1CCC2(CC1)OCC(c1cc(-c3ccccc3)nn1C)O2 (stereo not given)

>  <inhibition (%)>
2.07

$$$$
>  <COMPOUND>
CCOC(=O)c1c(C2COC3(CCCCC3)O2)cc(-c2ccccc2)nc1C (stereo not given)

>  <inhibition (%)>
0.1

$$$$
>  <COMPOUND>
Cn1nc(-c2cccs2)cc1C1COC2(CCCCC2)O1 (stereo not given)

>  <inhibition (%)>
0

$$$$
>  <COMPOUND>
Cn1nc(C2CC2)cc1C(O)CO (stereo not given)

>  <inhibition (%)>
0

$$$$
>  <COMPOUND>
Cc1ccc2cnc(C(O)CO)cc2c1 (stereo not given)

>  <inhibition (%)>
0.4

$$$$

For Autoinducer-2 kinase (Salmonella typhimurium (strain LT2 / SGSC1412 / ATCC 700720)), give the measured inhibition of the entry c1c(C2CC2)n[nH]c1C1COC2(CCCCC2)O1 (stereo not given)
1.47

For Autoinducer-2 kinase (Salmonella typhimurium (strain LT2 / SGSC1412 / ATCC 700720)), give the measured inhibition of the entry OCC(O)c1cc2ccoc2cn1 (stereo not given)
2.07

For Autoinducer-2 kinase (Salmonella typhimurium (strain LT2 / SGSC1412 / ATCC 700720)), give the measured inhibition of the entry OCC(O)c1cc(C2CCCC2)n[nH]1 (stereo not given)
0

For Autoinducer-2 kinase (Salmonella typhimurium (strain LT2 / SGSC1412 / ATCC 700720)), give the measured inhibition of the entry CCn1nc(-c2ccccc2)cc1C1COC2(CCCCC2)O1 (stereo not given)
0

For Autoinducer-2 kinase (Salmonella typhimurium (strain LT2 / SGSC1412 / ATCC 700720)), give the measured inhibition of the entry c1ccc(-c2cc(C3COC4(CCCCC4)O3)n(C3CCCC3)n2)cc1 (stereo not given)
0

For Autoinducer-2 kinase (Salmonella typhimurium (strain LT2 / SGSC1412 / ATCC 700720)), give the measured inhibition of the entry OCC(O)c1cc2c(F)cccc2cn1 (stereo not given)
0.65
